Quick reference for % inhibition among some binders
- target of assay: T1, wild type full length EGFR purified from A431 cells (human, UniProt P00533 25-1210)
- T1 construct: mature; Bought; coated on ELISA wells; also called full length EGFR receptor antigen; Sigma E3641
- protocol text: competition ELISA, competitor Ab-1
- Set-up: concentration or dose not given beside the values
property label: % inhibition

- binder: "antibody 1308 (antibody, human IgG1, kappa, V domains shown, Chimeric IgG1 kappa) VH: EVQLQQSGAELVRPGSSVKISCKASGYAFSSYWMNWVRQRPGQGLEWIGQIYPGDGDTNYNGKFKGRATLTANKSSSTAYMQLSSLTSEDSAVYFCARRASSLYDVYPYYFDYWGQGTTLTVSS VL: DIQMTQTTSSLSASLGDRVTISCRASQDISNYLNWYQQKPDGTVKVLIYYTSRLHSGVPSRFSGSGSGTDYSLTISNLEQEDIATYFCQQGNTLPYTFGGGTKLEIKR"
  property label: "% inhibition"
  reported value: "4%"
- binder: "antibody 1260 (antibody, human IgG1, kappa, V domains shown, Chimeric IgG1 kappa) VH: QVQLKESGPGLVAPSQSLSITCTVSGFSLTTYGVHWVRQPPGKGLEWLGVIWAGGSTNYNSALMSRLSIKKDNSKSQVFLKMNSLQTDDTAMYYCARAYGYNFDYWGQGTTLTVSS VL: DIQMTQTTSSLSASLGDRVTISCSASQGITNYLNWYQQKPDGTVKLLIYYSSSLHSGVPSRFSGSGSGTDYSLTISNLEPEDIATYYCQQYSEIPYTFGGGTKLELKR"
  property label: "% inhibition"
  reported value: "12%"
- binder: "antibody 1257 (antibody, human IgG1, kappa, V domains shown, Chimeric IgG1 kappa) VH: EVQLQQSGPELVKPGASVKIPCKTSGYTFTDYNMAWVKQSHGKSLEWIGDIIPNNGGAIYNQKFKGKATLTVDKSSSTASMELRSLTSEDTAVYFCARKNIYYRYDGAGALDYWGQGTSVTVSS VL: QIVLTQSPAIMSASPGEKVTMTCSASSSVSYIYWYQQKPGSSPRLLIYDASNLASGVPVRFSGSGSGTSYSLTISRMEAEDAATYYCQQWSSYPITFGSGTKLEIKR"
  property label: "% inhibition"
  reported value: "6%"
- binder: "antibody 1284 (antibody, human IgG1, kappa, V domains shown, Chimeric IgG1 kappa) VH: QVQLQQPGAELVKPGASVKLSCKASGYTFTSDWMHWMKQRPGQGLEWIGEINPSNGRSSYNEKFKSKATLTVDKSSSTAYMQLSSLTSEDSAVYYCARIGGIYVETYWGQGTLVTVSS VL: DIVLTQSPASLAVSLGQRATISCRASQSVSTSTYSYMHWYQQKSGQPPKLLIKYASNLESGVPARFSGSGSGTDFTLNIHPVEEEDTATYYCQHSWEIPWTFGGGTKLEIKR"
  property label: "% inhibition"
  reported value: "12%"
